Consider the following compounds; for each one, report its IC50.
molecular target: FGFR2 (Homo sapiens (Human)); experiment: FGFR Enzymatic Assay (FRET peptide phosphorylation), FGFR2; assay type: biochemical; conditions: pre-incubated for 4 hours
Sequence (P21802 22-821): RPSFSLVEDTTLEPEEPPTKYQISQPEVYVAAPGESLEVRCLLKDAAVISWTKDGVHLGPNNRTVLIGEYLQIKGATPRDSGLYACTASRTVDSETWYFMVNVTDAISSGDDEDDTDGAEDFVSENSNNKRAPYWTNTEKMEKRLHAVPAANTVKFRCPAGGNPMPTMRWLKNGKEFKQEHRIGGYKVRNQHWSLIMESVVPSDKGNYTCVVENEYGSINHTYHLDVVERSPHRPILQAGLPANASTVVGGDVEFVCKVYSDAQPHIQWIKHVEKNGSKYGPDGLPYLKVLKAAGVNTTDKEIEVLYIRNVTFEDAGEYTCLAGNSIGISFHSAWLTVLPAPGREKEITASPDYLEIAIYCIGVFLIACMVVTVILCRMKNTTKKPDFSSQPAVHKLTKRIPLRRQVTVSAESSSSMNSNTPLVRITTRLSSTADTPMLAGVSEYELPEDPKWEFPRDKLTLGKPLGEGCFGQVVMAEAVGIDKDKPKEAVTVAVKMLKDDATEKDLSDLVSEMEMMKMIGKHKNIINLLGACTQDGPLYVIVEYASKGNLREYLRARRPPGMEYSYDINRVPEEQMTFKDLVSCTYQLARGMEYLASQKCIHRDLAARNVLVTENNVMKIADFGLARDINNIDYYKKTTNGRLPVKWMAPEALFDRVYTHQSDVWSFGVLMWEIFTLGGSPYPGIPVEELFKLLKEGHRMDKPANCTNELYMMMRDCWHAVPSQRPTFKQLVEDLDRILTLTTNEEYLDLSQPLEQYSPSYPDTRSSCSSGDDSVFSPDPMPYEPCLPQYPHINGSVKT

**Q:** Supply reported IC50 belonging to this compound: CNC(=O)c1cncc(-c2cnn3cc(-c4cnn(C5CCC5)c4)c(O[C@H]4CCOC4)nc23)c1 [Example 22]
**A:** < 10 nM

**Q:** Supply reported IC50 belonging to this compound: CCNC(=O)c1cncc(-c2cnn3cc(-c4ccn(C)n4)c(N[C@H]4CCOC4)nc23)c1 [Example 61]
**A:** < 10 nM

**Q:** Supply reported IC50 belonging to this compound: CNC(=O)c1cc(C)c(F)c(-c2cnn3cc(-c4ccnnc4)c(N[C@H]4CCOC4)nc23)c1 [Example 44]
**A:** 10 to 30 nM

**Q:** Supply reported IC50 belonging to this compound: CC(C)NC(=O)c1cncc(-c2cnn3cc(-c4ccn(C)n4)c(N[C@H]4CCOC4)nc23)c1 [Example 62]
**A:** 10 to 30 nM

----------
Data export: IC50 values recorded with FGFR1 (Homo sapiens (Human), UniProt P11362).
Sequence (P11362 22-822): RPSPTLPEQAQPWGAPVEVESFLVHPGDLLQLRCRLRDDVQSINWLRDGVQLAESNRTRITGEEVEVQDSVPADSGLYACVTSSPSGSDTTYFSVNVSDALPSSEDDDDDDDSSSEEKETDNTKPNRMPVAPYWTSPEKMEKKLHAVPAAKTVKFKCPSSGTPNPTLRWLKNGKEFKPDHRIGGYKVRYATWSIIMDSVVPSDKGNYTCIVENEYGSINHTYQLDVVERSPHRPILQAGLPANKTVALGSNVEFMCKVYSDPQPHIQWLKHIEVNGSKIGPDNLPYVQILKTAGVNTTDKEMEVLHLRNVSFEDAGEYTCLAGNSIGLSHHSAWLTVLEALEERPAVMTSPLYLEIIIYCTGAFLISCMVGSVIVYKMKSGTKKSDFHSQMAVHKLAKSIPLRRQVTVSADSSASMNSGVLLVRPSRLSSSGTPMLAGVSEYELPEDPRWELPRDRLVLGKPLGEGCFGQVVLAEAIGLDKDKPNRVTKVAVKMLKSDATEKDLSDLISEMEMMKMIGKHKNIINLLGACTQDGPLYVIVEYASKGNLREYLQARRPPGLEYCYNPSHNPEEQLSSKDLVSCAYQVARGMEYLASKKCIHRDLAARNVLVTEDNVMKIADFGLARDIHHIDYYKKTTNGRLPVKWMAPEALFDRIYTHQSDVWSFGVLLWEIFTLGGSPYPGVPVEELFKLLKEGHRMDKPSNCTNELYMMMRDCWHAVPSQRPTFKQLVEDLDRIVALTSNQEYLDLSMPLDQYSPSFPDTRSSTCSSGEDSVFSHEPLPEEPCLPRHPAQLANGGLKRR

**Q:** Supply reported IC50 belonging to this compound: `CNC(=O)c1cc(F)c(F)c(-c2cnn3cc(-c4cnn(Cc5cccnc5)c4)c(N[C@H]4CCOC4)nc23)c1`
**A:** < 10 nM

**Q:** Supply reported IC50 belonging to this compound: `CNC(=O)c1cc(C#N)cc(-c2cnn3cc(-c4cccnc4)c(O[C@H]4CCOC4)nc23)c1`
**A:** ≥ 200 nM

**Q:** Supply reported IC50 belonging to this compound: `CNC(=O)c1cc(F)c(F)c(-c2cnn3cc(-c4cnn(CCN5CCOCC5)c4)c(N[C@H]4CCOC4)nc23)c1`
**A:** < 10 nM

**Q:** Supply reported IC50 belonging to this compound: `CNC(=O)c1cc(F)c(F)c(-c2cnn3cc(-c4ccc(N5CCN(C)CC5)cc4)c(O[C@H]4CCOC4)nc23)c1`
**A:** < 10 nM

**Q:** Supply reported IC50 belonging to this compound: `CCn1cc(-c2cn3ncc(-c4cc(C(=O)NC)cc(F)c4F)c3nc2N[C@H]2CCOC2)cn1`
**A:** 10 to 30 nM

**Q:** Supply reported IC50 belonging to this compound: `CNC(=O)c1cc(F)c(F)c(-c2cnn3cc(-c4ccc(N5CCN(C)CC5)nc4)c(O[C@H]4CCOC4)nc23)c1`
**A:** 10 to 30 nM

**Q:** Supply reported IC50 belonging to this compound: `CNC(=O)c1cc(C#N)cc(-c2cnn3cc(-c4ccncc4)c(O[C@H]4CCOC4)nc23)c1`
**A:** 30 to 200 nM

----------
pIC50: −log10 of the molar value.
Consider the following compounds; for each one, report its pIC50.

**Q:** Jot down pIC50 (FGFR1 (Homo sapiens (Human), UniProt P11362)) of `CNC(=O)c1cncc(-c2cnn3cc(-c4cnn(C)c4)c(N[C@H]4CCOC4)nc23)c1` .
**A:** 6.70 to 7.52

**Q:** Jot down pIC50 (FGFR1 (Homo sapiens (Human), UniProt P11362)) of `CNC(=O)c1cc(C)c(F)c(-c2cnn3cc(-c4cnc(C)o4)c(N[C@H]4CCOC4)nc23)c1` .
**A:** 7.52 to 8.00

**Q:** Jot down pIC50 (FGFR1 (Homo sapiens (Human), UniProt P11362)) of CNC(=O)c1cc(C)c(F)c(-c2cnn3cc(-c4cnn(C5CCOC5)c4)c(N[C@H]4CCOC4)nc23)c1 (stereo partly shown) .
**A:** 6.70 to 7.52

**Q:** Jot down pIC50 (FGFR1 (Homo sapiens (Human), UniProt P11362)) of `CNC(=O)c1cc(-c2cnn3cc(-c4cnn(CCOC)c4)c(N[C@H]4CCOC4)nc23)c(F)c(C(F)F)c1` .
**A:** 7.52 to 8.00

**Q:** Jot down pIC50 (FGFR1 (Homo sapiens (Human), UniProt P11362)) of CNC(=O)c1ccc(F)c(-c2cnn3cc(-c4cnn(C)c4)c(OC4CCOC4)nc23)c1 (racemic) .
**A:** 6.70 to 7.52

**Q:** Jot down pIC50 (FGFR1 (Homo sapiens (Human), UniProt P11362)) of `CNC(=O)c1cncc(-c2cnn3cc(-c4cnn(C5CCC5)c4)c(O[C@H]4CCOC4)nc23)c1` .
**A:** 7.52 to 8.00

**Q:** Jot down pIC50 (FGFR1 (Homo sapiens (Human), UniProt P11362)) of `CNC(=O)c1cc(C)c(F)c(-c2cnn3cc(-c4cnn(CCC#N)c4)c(N[C@H]4CCOC4)nc23)c1` .
**A:** 7.52 to 8.00

----------
biological target: FGFR4 (Homo sapiens (Human)); assay: FGFR Enzymatic Assay (FRET peptide phosphorylation), FGFR4; assay type: biochemical; details: pre-incubated for 4 hours
Consider the following compounds; for each one, report its IC50.

**Q:** Supply reported IC50 belonging to this compound: `CCNC(=O)c1cncc(-c2cnn3cc(-c4ccn(C)n4)c(N[C@H]4CCOC4)nc23)c1`
**A:** 30 to 200 nM

**Q:** Supply reported IC50 belonging to this compound: `CNC(=O)c1cncc(-c2cnn3cc(-c4ccn(C)n4)c(N[C@H]4CCOC4)nc23)c1`
**A:** 10 to 30 nM

**Q:** Supply reported IC50 belonging to this compound: `CCS(=O)(=O)c1cc(F)c(F)c(-c2cnn3cc(-c4cnn(C)c4)c(N[C@H]4CCOC4)nc23)c1`
**A:** ≥ 200 nM

**Q:** Supply reported IC50 belonging to this compound: `Cn1cc(-c2cn3ncc(-c4cccc(-c5cc[nH]n5)c4)c3nc2O[C@H]2CCOC2)cn1`
**A:** ≥ 200 nM

**Q:** Supply reported IC50 belonging to this compound: `CNC(=O)c1cc(C)c(F)c(-c2cnn3cc(-c4cnn(C5CN(C)C5)c4)c(N[C@H]4CCOC4)nc23)c1`
**A:** ≥ 200 nM

**Q:** Supply reported IC50 belonging to this compound: `CNC(=O)c1cc(C)c(F)c(-c2cnn3cc(-c4cnn(C5CCN(C)CC5)c4)c(N[C@H]4CCOC4)nc23)c1`
**A:** 30 to 200 nM

**Q:** Supply reported IC50 belonging to this compound: `CCS(=O)(=O)c1cc(F)c(F)c(-c2cnn3cc(-c4cnn(C)c4)c(O[C@H]4CCOC4)nc23)c1`
**A:** ≥ 200 nM

**Q:** Supply reported IC50 belonging to this compound: CNC(=O)c1cncc(-c2cnn3cc(-c4cnn(C)c4)c(OC4CCOC4)nc23)c1 (racemic)
**A:** ≥ 200 nM

**Q:** Supply reported IC50 belonging to this compound: `CNC(=O)c1cncc(-c2cnn3cc(-c4cnn(C)n4)c(N[C@H]4CCOC4)nc23)c1`
**A:** ≥ 200 nM

----------
molecular target: FGFR4 (Homo sapiens (Human), UniProt P22455); test: FGFR Enzymatic Assay (FRET peptide phosphorylation), FGFR4; format: biochemical
Sequence (P22455 22-802): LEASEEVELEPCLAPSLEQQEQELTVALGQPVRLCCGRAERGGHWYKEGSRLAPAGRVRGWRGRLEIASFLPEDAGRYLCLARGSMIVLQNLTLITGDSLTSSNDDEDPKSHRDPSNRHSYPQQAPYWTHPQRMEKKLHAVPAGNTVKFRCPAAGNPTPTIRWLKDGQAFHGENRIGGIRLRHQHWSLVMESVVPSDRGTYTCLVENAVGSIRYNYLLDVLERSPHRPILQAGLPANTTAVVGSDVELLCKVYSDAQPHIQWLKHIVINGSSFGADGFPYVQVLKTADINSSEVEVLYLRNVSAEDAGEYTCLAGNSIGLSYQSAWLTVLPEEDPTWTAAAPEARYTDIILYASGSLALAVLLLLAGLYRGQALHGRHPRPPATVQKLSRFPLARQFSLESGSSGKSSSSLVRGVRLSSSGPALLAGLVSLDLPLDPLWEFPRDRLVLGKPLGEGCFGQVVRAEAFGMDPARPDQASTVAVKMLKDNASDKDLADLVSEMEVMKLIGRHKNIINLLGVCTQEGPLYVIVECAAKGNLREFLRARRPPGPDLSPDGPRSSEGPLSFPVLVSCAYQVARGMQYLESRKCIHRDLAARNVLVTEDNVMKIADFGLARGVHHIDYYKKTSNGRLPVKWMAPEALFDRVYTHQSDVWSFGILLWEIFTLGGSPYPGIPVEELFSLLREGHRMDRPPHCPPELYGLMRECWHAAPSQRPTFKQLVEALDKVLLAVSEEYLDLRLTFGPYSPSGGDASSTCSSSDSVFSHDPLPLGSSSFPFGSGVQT
pIC50: −log10 of the molar value.
Reported metric: pIC50

**Q:** Supply reported pIC50 belonging to this compound: CNC(=O)c1cc(C)c(F)c(-c2cnn3cc(-c4cnn(C5CCOC5)c4)c(N[C@H]4CCOC4)nc23)c1 (stereo partly drawn) [Example 41]
**A:** 6.70 to 7.52

**Q:** Supply reported pIC50 belonging to this compound: CCn1cc(-c2cn3ncc(-c4cc(C(=O)NC)cc(F)c4F)c3nc2N[C@H]2CCOC2)cn1 [Example 53]
**A:** < 6.70

**Q:** Supply reported pIC50 belonging to this compound: CNC(=O)c1cc(C)c(F)c(-c2cnn3cc(-c4cnn(CC(C)(C)O)c4)c(N[C@H]4CCOC4)nc23)c1 [Example 40]
**A:** 6.70 to 7.52

----------
target: FGFR4 (Homo sapiens (Human), UniProt P22455); assay: FGFR Enzymatic Assay (FRET peptide phosphorylation), FGFR4; format: biochemical; settings: pre-incubated for 4 hours
Consider the following compounds; for each one, report its IC50.

**Q:** Supply reported IC50 belonging to this compound: [2H]C([2H])([2H])NC(=O)c1cc(-c2cnn3cc(-c4ccc(CN5C[C@H]6C[C@@H]5CO6)nc4)c(O[C@H]4CCOC4)nc23)c(F)c(C(F)F)c1 [Example 66]
**A:** 30 to 200 nM

**Q:** Supply reported IC50 belonging to this compound: CNC(=O)c1cc(C)c(F)c(-c2cnn3cc(-c4cnn(C)c4)c(OC4CCOC4)nc23)c1 (racemic) [Example 4]
**A:** 30 to 200 nM

**Q:** Supply reported IC50 belonging to this compound: [2H]C([2H])([2H])NC(=O)c1cncc(-c2cnn3cc(-c4cnn(C(C)C)c4)c(O[C@H]4CCOC4)nc23)c1 [Example 63]
**A:** 30 to 200 nM

**Q:** Supply reported IC50 belonging to this compound: [2H]C([2H])([2H])NC(=O)c1cc(C)c(F)c(-c2cnn3cc(-c4cnn([C@@H]5CCN(C)C[C@H]5F)c4)c(O[C@H]4CCOC4)nc23)c1 [Example 64]
**A:** 10 to 30 nM

**Q:** Supply reported IC50 belonging to this compound: CC(C)NC(=O)c1cncc(-c2cnn3cc(-c4ccn(C)n4)c(N[C@H]4CCOC4)nc23)c1 [Example 62]
**A:** ≥ 200 nM

**Q:** Supply reported IC50 belonging to this compound: CNC(=O)c1cc(C)c(F)c(-c2cnn3cc(-c4cnn([C@@H]5CCN(C)C[C@H]5F)c4)c(N[C@H]4CCOC4)nc23)c1 [Example 65]
**A:** 30 to 200 nM

**Q:** Supply reported IC50 belonging to this compound: Cn1cc(-c2cn3ncc(-c4cccc5[nH]ncc45)c3nc2O[C@H]2CCOC2)cn1 [Example 33]
**A:** 30 to 200 nM
